test: Human pregnane X receptor (PXR) small molecule agonists, qHTS cell viability counter screen (AID 1346977); conditions: PXR-Luc HepG2 viability, CellTiter-Fluor, 24 h; series mostly up to 92.4 µM; note: nearly all actives have a fitted effect of over 50% in size
Results filed as inconclusive are left out. Active and inactive are the calls of the source. Calls come from the whole dose curve; as a rule, active = well fitted cell-killing curve with a large enough effect in the repeat runs; inconclusive = weak or mixed curves, or effect the other way; inactive = flat fitted curve, though single readings scatter.
Classes used: active, inactive

Compound: CC1=C(/C=C/C(C)=C/C=C/C(C)=C\C=O)C(C)(C)CCC1
Category label: inactive
--
Compound: OCCCCl
Category label: inactive
--
Compound: CN(C)c1ccc(N=Nc2ccccc2C(=O)O)cc1
Category label: active
--
Compound: O=C(O)CCn1c2c(c3ccccc31)C[C@H](NS(=O)(=O)c1ccc(F)cc1)CC2
Category label: inactive
--
Compound: COC(=O)NCCC[Si](OC)(OC)OC
Category label: inactive
--
Compound: CCOC(=O)CC(C)O (configuration not stated)
Category label: inactive
--
Compound: CC(=O)OC1CCCCC1
Category label: inactive
--
Compound: COc1cccc(O)c1
Category label: inactive
--
Compound: COc1cc(C(=O)NS(=O)(=O)c2ccccc2C)ccc1Cc1cn(C)c2ccc(NC(=O)OC3CCCC3)cc12
Category label: inactive
--
Compound: CCCCCCCCCCCCCC[n+]1ccccc1
Category label: active
--
Compound: NCCCC(O)(P(=O)(O)O)P(=O)(O)O
Category label: inactive
--
Compound: COc1cccc(CCc2ccccc2OCC(CN(C)C)OC(=O)CCC(=O)O)c1 (configuration not stated)
Category label: active
--
Compound: NC(=O)c1ccccc1N
Category label: inactive
--
Compound: O=C1c2c(O)ccc(O)c2C(=O)c2c(NCCNCCO)ccc(NCCNCCO)c21
Category label: active
--
Compound: N#CSCSc1nc2ccccc2s1
Category label: active
--
Compound: Cc1ccc2ccc3cccc4ccc1c2c34
Category label: inactive
--
Compound: C=CC(C)(CCC=C(C)C)OC(=O)/C=C/c1ccccc1 (configuration not stated)
Category label: inactive
--
Compound: NC(=O)c1nc(-c2cccc(-c3cc(F)ccc3OCC(F)(F)C(F)(F)F)c2)n[nH]1
Category label: active
--
Compound: O=C1c2c(O)ccc([N+](=O)[O-])c2C(=O)c2c([N+](=O)[O-])ccc(O)c21
Category label: active
--
Compound: CCC(C)(C)c1cc(O)c(C(C)(C)CC)cc1O
Category label: inactive
--
Compound: C[C@@H]1CC[C@H]2C(C)(C)[C@H]3C[C@@]12CC[C@@]3(C)O
Category label: inactive
--
Compound: Clc1cccnc1
Category label: inactive
--
Compound: CC(=O)C=O
Category label: inactive
--
Compound: CNC(=O)c1cc(Oc2ccc(NC(=O)Nc3ccc(Cl)c(C(F)(F)F)c3)cc2)ccn1
Category label: active
--
Compound: CC(NCCC(c1ccccc1)c1ccccc1)c1ccccc1 (configuration not stated)
Category label: active
--
Compound: CCCC(CC)CCCCCCCN (configuration not stated)
Category label: inactive
--
Compound: CC(C)=CCCC(C)O (configuration not stated)
Category label: inactive

###

experiment: qHTS assay to identify small molecule antagonists of the estrogen related receptor signaling pathway with the pleiotropic PPARgamma coactivator (PGC) from Tox21 10K library - cell viability counter screen (AID 1224840); conditions: PGC/ERR reporter cells viability, CellTiter-Fluor, 17.5 h; series mostly up to 92.4 µM; note: nearly all actives have a fitted effect of over 40% in size
Inconclusive results are not listed. Calls of active or inactive are those of the source. Calls come from the whole dose curve; as a rule, active = well fitted cell-killing curve with a large enough effect in the repeat runs (not every such curve was filed as active); inconclusive = weak or mixed curves, or effect the other way; inactive = no such curve, though single readings can be large or run the other way.
Classes used: active, inactive

Compound: C/C=C/C(=O)C1=C(C)CCCC1(C)C
Category label: inactive
--
Compound: OCCC(O)CO (stereo unspecified)
Category label: inactive
--
Compound: CC(=O)Oc1ccc(C2(c3ccc(OC(C)=O)cc3)Oc3ccccc3NC2=O)cc1
Category label: inactive
--
Compound: O=C(O)Cc1ccc(OCCNC[C@H](O)c2ccccc2)cc1
Category label: inactive
--
Compound: C[C@@H]1CC[C@H]2C(C)(C)[C@H]3C[C@@]12CC[C@@]3(C)O
Category label: inactive
--
Compound: CN(C)c1ccc(N=Nc2ccccc2C(=O)O)cc1
Category label: active
--
Compound: C=C[C@](C)(O)CC[C@@H]1[C@@]2(C)CCCC(C)(C)[C@@H]2CC[C@@]1(C)O
Category label: active
--
Compound: CCC(C)c1cc([N+](=O)[O-])cc([N+](=O)[O-])c1OC(=O)OC(C)C (stereo unspecified)
Category label: active
--
Compound: OCCCc1cccnc1
Category label: inactive
--
Compound: CCCCOCC
Category label: inactive
--
Compound: C=CC(=O)OCCN(CC)CC
Category label: inactive
--
Compound: CCCCCCCOC(=O)c1ccc(O)cc1
Category label: inactive
--
Compound: Cc1cncc(C)c1
Category label: inactive
--
Compound: c1cc(OCC2CO2)cc(OCC2CO2)c1 (stereo unspecified)
Category label: active
--
Compound: N#CSCSc1nc2ccccc2s1
Category label: active
--
Compound: Cc1c(C(=O)O)cccc1[N+](=O)[O-]
Category label: inactive
--
Compound: CCCCCCCOC(=O)c1ccccc1C(=O)OCCCCCCC
Category label: inactive
--
Compound: Cc1ccc(N)cc1O
Category label: inactive
--
Compound: c1ccc(Nc2cccc3ccccc23)cc1
Category label: inactive
--
Compound: CS(C)(=O)=O
Category label: inactive
--
Compound: CC1(C)COCN1
Category label: inactive
--
Compound: CCCCCCCC(OC)OC
Category label: inactive
--
Compound: O=C(O)CCCCCCC(=O)O
Category label: inactive
--
Compound: S=P(N1CC1)(N1CC1)N1CC1
Category label: inactive
--
Compound: CCCCCCCCCCc1ccccc1
Category label: inactive
--
Compound: CC(CN(C)C)CN1c2ccccc2CCc2ccccc21 (stereo unspecified)
Category label: inactive
--
Compound: CC=O
Category label: active
--
Compound: CCc1cccc(CC)c1NC(=O)C(=O)O
Category label: inactive
--
Compound: Brc1ccccn1
Category label: inactive
--
Compound: O=C(Nc1ccc(Cl)c(Cl)c1)c1cc(Cl)cc(Cl)c1O
Category label: active
--
Compound: CCCCCCCCCC(=O)N(C)C
Category label: inactive

###

assay: qHTS assay to identify small molecule antagonists of the estrogen related receptor signaling pathway with the pleiotropic PPARgamma coactivator (PGC) from Tox21 10K library - cell viability counter screen (AID 1224840); conditions: PGC/ERR reporter cells viability, CellTiter-Fluor, 17.5 h; series mostly up to 92.4 µM; note: nearly all actives have a fitted effect of over 40% in size
Records with an inconclusive call do not appear. Active and inactive are the calls of the source. The call rests on the fitted dose curve; in most records, active means well fitted cell-killing curve with a large enough effect in the repeat runs (not every such curve was filed as active); inconclusive means weak or mixed curves, or effect the other way; inactive means no such curve, though single readings can be large or run the other way.
Classes used: active, inactive

Compound: CCC1(c2cnc[nH]2)Cc2ccccc2C1
Category label: inactive

Compound: COC(=O)C1=C(C)NC(C)=C(C(=O)OCCCN2CCC(c3ccccc3)(c3ccccc3)CC2)C1c1cccc([N+](=O)[O-])c1 (centres undefined)
Category label: active

Compound: SCCCCCCCCS
Category label: inactive

Compound: C=CC(=O)OCCC#N
Category label: inactive

Compound: Cc1cc(=O)[nH]c(=O)[nH]1
Category label: inactive

Compound: CCCC(CC)CCCCCCCN (centres undefined)
Category label: inactive

Compound: CCCCCCCC/C=C\CCCCCCCC(=O)NCc1ccc(O)c(OC)c1
Category label: inactive

Compound: CCCCC(CC)COC(=O)c1ccc(O)cc1 (centres undefined)
Category label: inactive

Compound: CC(C)C(=O)OCc1ccccc1
Category label: inactive

Compound: CC(C)(C)c1cc(CCC(=O)NCCCCCCNC(=O)CCc2cc(C(C)(C)C)c(O)c(C(C)(C)C)c2)cc(C(C)(C)C)c1O
Category label: inactive

Compound: [O]=[Zr]
Category label: inactive

Compound: CCCCOC(=O)C(C)CC (centres undefined)
Category label: inactive

Compound: c1cc[nH]c1
Category label: inactive

Compound: CCCCCCCCCCCCCC[n+]1ccccc1
Category label: active

###

assay: Caspase-3/7 induction in HepG2 cells by small molecules, qHTS assay (AID 1346978); conditions: HepG2 caspase-3/7 activation, Caspase-Glo luminescence, 17 h; series mostly up to 92.4 µM; note: nearly all actives have a fitted effect of over 15% in size
Records with an inconclusive call do not appear. Calls of active or inactive are those of the source. Calls come from the whole dose curve; as a rule, active = well fitted activation curve with a large enough effect in the repeat runs; inconclusive = weak or mixed curves; inactive = flat fitted curve, though single readings scatter.
Classes used: 1 (active), 0 (inactive)

Compound: C=C1C(C)(C)[C@@]2(Cl)C(Cl)[C@]1(Cl)C(Cl)(Cl)C2(Cl)Cl (stereo partly drawn)
Category label: 0
//
Compound: CN(C)c1ccc(N=Nc2ccccc2C(=O)O)cc1
Category label: 0
//
Compound: Cc1cc(C)c(C=O)c(C)c1
Category label: 0
//
Compound: CCc1c(C(=O)O)c(=O)cnn1-c1ccc(Cl)cc1
Category label: 0
//
Compound: O=C(NO)c1ccccc1
Category label: 0
//
Compound: Cn1cccc1
Category label: 0
//
Compound: Cc1cnccn1
Category label: 0
//
Compound: COCC(=O)O[C@]1(CCN(C)CCCc2nc3ccccc3[nH]2)CCc2cc(F)ccc2[C@@H]1C(C)C
Category label: 1
//
Compound: OCCCc1cccnc1
Category label: 0
//
Compound: C=C(C)CCCC
Category label: 0
//
Compound: CCc1cccc(CC)c1NC(=O)C(=O)O
Category label: 0
//
Compound: O[C@@H](c1cc(C(F)(F)F)nc2c(C(F)(F)F)cccc12)[C@H]1CCCCN1
Category label: 1
//
Compound: NC(=O)c1nc(-c2cccc(-c3cc(F)ccc3OCC(F)(F)C(F)(F)F)c2)n[nH]1
Category label: 0
